target: Xanthine dehydrogenase/oxidase (Homo sapiens); experiment: Inhibition of xanthine oxidase- mediated uric acid formation at 50 ug/mL after 5 mins by spectrophotometry
Sequence (P47989 whole entry): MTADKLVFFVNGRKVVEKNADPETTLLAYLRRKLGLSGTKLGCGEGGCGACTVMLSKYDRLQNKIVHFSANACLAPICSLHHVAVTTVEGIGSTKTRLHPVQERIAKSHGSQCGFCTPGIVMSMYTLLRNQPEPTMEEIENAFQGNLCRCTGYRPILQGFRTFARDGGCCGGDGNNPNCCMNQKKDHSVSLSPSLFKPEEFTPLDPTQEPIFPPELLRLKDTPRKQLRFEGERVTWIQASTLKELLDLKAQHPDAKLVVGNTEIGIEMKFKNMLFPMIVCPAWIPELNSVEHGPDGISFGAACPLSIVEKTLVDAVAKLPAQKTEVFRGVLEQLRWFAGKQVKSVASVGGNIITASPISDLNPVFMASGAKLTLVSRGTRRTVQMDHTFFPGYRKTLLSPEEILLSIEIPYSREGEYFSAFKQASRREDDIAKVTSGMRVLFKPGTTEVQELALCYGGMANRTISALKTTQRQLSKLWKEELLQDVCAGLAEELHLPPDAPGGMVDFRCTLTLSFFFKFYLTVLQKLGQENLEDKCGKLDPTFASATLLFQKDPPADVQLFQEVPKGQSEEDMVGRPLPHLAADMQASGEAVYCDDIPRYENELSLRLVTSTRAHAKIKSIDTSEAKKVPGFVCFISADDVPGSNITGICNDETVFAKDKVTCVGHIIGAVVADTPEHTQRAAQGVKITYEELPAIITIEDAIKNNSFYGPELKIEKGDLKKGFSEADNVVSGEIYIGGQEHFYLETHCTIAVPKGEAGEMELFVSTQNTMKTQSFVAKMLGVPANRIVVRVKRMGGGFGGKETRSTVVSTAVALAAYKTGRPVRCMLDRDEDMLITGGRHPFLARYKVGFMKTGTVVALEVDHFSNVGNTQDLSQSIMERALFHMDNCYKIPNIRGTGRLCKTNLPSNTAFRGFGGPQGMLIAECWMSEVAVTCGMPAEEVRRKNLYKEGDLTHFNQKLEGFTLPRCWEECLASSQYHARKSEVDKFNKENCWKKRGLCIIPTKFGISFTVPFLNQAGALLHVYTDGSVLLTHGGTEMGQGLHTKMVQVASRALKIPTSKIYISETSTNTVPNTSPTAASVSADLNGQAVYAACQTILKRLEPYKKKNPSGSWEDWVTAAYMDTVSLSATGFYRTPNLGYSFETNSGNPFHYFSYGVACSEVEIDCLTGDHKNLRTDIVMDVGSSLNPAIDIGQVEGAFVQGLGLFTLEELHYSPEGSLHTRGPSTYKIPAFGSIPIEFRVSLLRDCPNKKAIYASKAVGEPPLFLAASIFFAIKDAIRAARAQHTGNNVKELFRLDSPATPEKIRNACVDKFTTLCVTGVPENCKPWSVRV
// reported inhibition at 50 µg/mL for each item listed
Quick note: give the figure in %, leave out the unit.

Below are worked cases with known answers.
Compound	Endpoint unit	inhibition at 50 µg/mL
COC(=O)CCc1ccccc1O[C@@H]1O[C@H](CO)[C@@H](O)[C@H](O)[C@H]1O [METHYL DIHYDROMELILOTOSIDE]	%	22.4
OC/C=C/c1ccccc1	%	47.6
COc1ccccc1/C=C/C=O	%	95.8

# ---- query compound ----
Prompt line: Report inhibition at 50 µg/mL on Xanthine dehydrogenase/oxidase (Homo sapiens) for this entry: COC(=O)c1cccc(O[C@@H]2O[C@H](CO[C@@H]3OC[C@](O)(CO)[C@H]3O)[C@@H](O)[C@H](O)[C@H]2O)c1 [CINNACASOLIDE A]
Response line: 22.2

Recorded values, source ChEMBL document CHEMBL2046412.
